TARGET_SYSTEM: T1, human CD4 on cells (SKW3 cells; human PBMCs) (human, UniProt P01730 26-458)
T1 construct: whole, on cells; SKW3 CD4 knockout cells served as the negative cell line; also called hCD4
EXPERIMENTAL_PROTOCOL: FACS confirmation, supernatant on SKW3 WT cells, anti-mouse Fc 647; background gMFI 3300
EXPERIMENTAL_READOUT: SKW3 WT anti-mFc 647, gMFI (gMFI)
Field: numeric (gMFI). Do not append units.

Consider 75110_01D24A (antibody, V domains shown, Tested as non-clonal AlivaMab Mouse Kappa hybridoma supernatant: human variable domains and human kappa, mouse Fc) VH: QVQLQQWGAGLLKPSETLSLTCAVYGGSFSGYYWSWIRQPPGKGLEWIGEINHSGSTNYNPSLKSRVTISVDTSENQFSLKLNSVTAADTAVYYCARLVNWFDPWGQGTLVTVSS VL: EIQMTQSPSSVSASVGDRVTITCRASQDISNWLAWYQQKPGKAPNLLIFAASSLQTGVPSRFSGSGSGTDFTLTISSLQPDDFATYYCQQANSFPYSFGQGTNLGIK . Its measured SKW3 WT anti-mFc 647, gMFI is 25000
